B1: Hairpin Ribozyme (parent)
chain: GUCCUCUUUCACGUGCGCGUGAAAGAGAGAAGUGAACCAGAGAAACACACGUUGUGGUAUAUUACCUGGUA

Variants of: B1
Assay: self-cleavage, relative activity (ratio to wild type); higher = more cleavage; co-transcriptional
PARAMETER: self-cleavage

>  <MUTATION_KEY>
C12A G51A

>  <self-cleavage>
0.898

$$$$
>  <MUTATION_KEY>
C3G U52G

>  <self-cleavage>
0.212

$$$$
>  <MUTATION_KEY>
U2A A11C

>  <self-cleavage>
0.288

$$$$
>  <MUTATION_KEY>
C50G A64C

>  <self-cleavage>
0.201

$$$$
>  <MUTATION_KEY>
C46U G51C

>  <self-cleavage>
0.176

$$$$

[Q] self-cleavage lookup needed for U14A A39C , thanks.
[A] 0.515

[Q] self-cleavage lookup needed for U58A C66A , thanks.
[A] 0.18

[Q] self-cleavage lookup needed for U5A G54C , thanks.
[A] 0.124

[Q] self-cleavage lookup needed for U14G A35G , thanks.
[A] 0.715

[Q] self-cleavage lookup needed for G40C U67G , thanks.
[A] 0.157

[Q] self-cleavage lookup needed for A30G C48U , thanks.
[A] 0.19

[Q] self-cleavage lookup needed for A45C G56U , thanks.
[A] 0.203

[Q] self-cleavage lookup needed for G19A A28G , thanks.
[A] 0.934

[Q] self-cleavage lookup needed for U33C U62G , thanks.
[A] 0.0931

[Q] self-cleavage lookup needed for G29C , thanks.
[A] 0.133

[Q] self-cleavage lookup needed for A28U C48G , thanks.
[A] 0.195

[Q] self-cleavage lookup needed for G19A A30C , thanks.
[A] 0.146

[Q] self-cleavage lookup needed for U9A A30U , thanks.
[A] 0.195

[Q] self-cleavage lookup needed for C3A A64U , thanks.
[A] 0.249

[Q] self-cleavage lookup needed for U20C G42A , thanks.
[A] 0.19

[Q] self-cleavage lookup needed for C12A G69U , thanks.
[A] 0.251

[Q] self-cleavage lookup needed for C18G A22U , thanks.
[A] 0.801

[Q] self-cleavage lookup needed for C38U A59U , thanks.
[A] 0.228

[Q] self-cleavage lookup needed for U55C U70C , thanks.
[A] 0.195
